Origin of the recorded values: patent US6610853B1

Tested on: Convolvulus arvensis
experimental details: Test on herbicidal activity by foliar application
Format: in vivo
assay context: foliar spray, 1 kg/ha, plants at 1-2 leaf stage in pots, evaluated 14 days after spraying
What Herbicidal activity, Convolvulus arvensis was measured for each of the following?

# get_value(readout='Herbicidal activity, Convolvulus arvensis', item= COc1ccc(C(=O)NS(=O)(=O)c2ccccc2S(=O)(=O)N(C)C)nc1[N+](=O)[O-] [Compound I-858] )
5 (90% or more inhibition)

Repeat for the following compound: COc1cc(Cl)nc(C(=O)NS(=O)(=O)c2ccccc2Cl)c1 [Compound I-705]
5 (90% or more inhibition)

Please do the same for COc1ccc(C(=O)NS(=O)(=O)c2ccccc2OC(F)(F)F)nc1Cl [Compound I-798] as well.
4 (70% or more-90% inhibition)

COC(=O)c1ccccc1S(=O)(=O)NC(=O)c1ccc(OC)c(OC)n1 [Compound I-259] ?
3 (50% or more-70% inhibition)

What do we get for COc1ccc(C(=O)NS(=O)(=O)c2ccccc2S(=O)(=O)N(C)C)nc1Cl [Compound I-888] ?
5 (90% or more inhibition)

Same read-out for COc1ccc(C(=O)NS(=O)(=O)c2ccccc2S(C)(=O)=O)nc1Br [Compound I-819] ?
4 (70% or more-90% inhibition)

Here is the next compound: COc1cc(Cl)nc(C(=O)NS(=O)(=O)c2cccc(Cl)c2Cl)c1 [Compound I-345]
5 (90% or more inhibition)

Next: COC(=O)c1ccccc1S(=O)(=O)NC(=O)c1cc(OC)cc(C)n1 [Compound I-254]
3 (50% or more-70% inhibition)

Continue with Cc1nc(C(=O)NS(=O)(=O)c2ccccc2S(=O)(=O)N(C)C)ccc1[N+](=O)[O-] [Compound I-868]
3 (50% or more-70% inhibition)

And for COC(=O)c1ccccc1S(=O)(=O)NC(=O)c1ccc(OC)c(Cl)n1 [Compound I-258] ?
5 (90% or more inhibition)

Please do the same for COC(=O)c1ccccc1S(=O)(=O)NC(=O)c1cccc(Cl)n1 [Compound I-231] as well.
4 (70% or more-90% inhibition)

And for COC(=O)c1ccccc1S(=O)(=O)NC(=O)c1ccc(OC)cn1 [Compound I-234] ?
4 (70% or more-90% inhibition)

Moving on to the next compound: COc1cc(Cl)nc(C(=O)NS(=O)(=O)c2ccccc2OC(F)(F)F)c1 [Compound I-795]
3 (50% or more-70% inhibition)

Same read-out for COc1cc(Cl)nc(C(=O)NS(=O)(=O)c2c(Cl)cccc2Cl)c1 [Compound I-615] ?
4 (70% or more-90% inhibition)

Further, for COC(=O)c1ccccc1S(=O)(=O)NC(=O)c1cc(Cl)cc(OC)n1 [Compound I-221] ?
4 (70% or more-90% inhibition)

Now consider O=C(NS(=O)(=O)c1c(Cl)cccc1Cl)c1cccc(Cl)n1 [Compound I-591] .
5 (90% or more inhibition)

Quick one: COc1ccc(C(=O)NS(=O)(=O)c2ccccc2S(=O)(=O)N(C)OC)nc1Br [Compound I-830]
5 (90% or more inhibition)

====

System: Setaria viridis
experimental details: Test on herbicidal activity by foliar application
Format: in vivo
assay context: foliar spray, 1 kg/ha, plants at 1-2 leaf stage in pots, evaluated 14 days after spraying
experimental readout: Herbicidal activity, Setaria viridis

Looking for the measured Herbicidal activity, Setaria viridis of `COc1ccc(C(=O)NS(=O)(=O)c2ccccc2S(=O)(=O)N(C)C)nc1` , can you help?
4 (70% or more-90% inhibition)

Then this compound: `COC(=O)c1ccccc1S(=O)(=O)NC(=O)c1ccc(OC)c(OC)n1`
4 (70% or more-90% inhibition)

Same again, this time with `COc1ccc(C(=O)NS(=O)(=O)c2ccccc2S(=O)(=O)N(C)C)nc1C`
5 (90% or more inhibition)

Continue with `COc1cc(Cl)nc(C(=O)NS(=O)(=O)c2ccccc2Cl)c1`
3 (50% or more-70% inhibition)

// query: `COc1ccc(C(=O)NS(=O)(=O)c2ccccc2S(=O)(=O)N(C)C)nc1OC`
4 (70% or more-90% inhibition)

Consider next the compound `COc1ccc(C(=O)NS(=O)(=O)c2ccccc2OC(F)(F)F)nc1Br` in the same way.
4 (70% or more-90% inhibition)

Same lookup for `COc1ccc(C(=O)NS(=O)(=O)c2ccccc2OC(F)(F)F)nc1Cl` , please.
3 (50% or more-70% inhibition)

Also `COC(=O)c1ccccc1S(=O)(=O)NC(=O)c1ccc(OC)c(Br)n1` ?
4 (70% or more-90% inhibition)

Would you mind doing `COc1cc(Cl)nc(C(=O)NS(=O)(=O)c2ccccc2S(=O)(=O)N(C)C)c1` as well?
5 (90% or more inhibition)

How about `COc1ccc(C(=O)NS(=O)(=O)c2ccccc2S(=O)(=O)N(C)C)nc1Cl` ?
5 (90% or more inhibition)

For `COc1ccc(C(=O)NS(=O)(=O)c2ccccc2S(=O)(=O)N(C)C)nc1[N+](=O)[O-]` then?
5 (90% or more inhibition)

Query `COC(=O)c1ccccc1S(=O)(=O)NC(=O)c1ccc(OC)c(Cl)n1` next
5 (90% or more inhibition)

Also check `COC(=O)c1ccccc1S(=O)(=O)NC(=O)c1ccc(OC)cn1`
4 (70% or more-90% inhibition)

Please give the result for `COc1cc(Cl)nc(C(=O)NS(=O)(=O)c2ccccc2S(=O)(=O)N(C)OC)c1` too.
5 (90% or more inhibition)

Next entry: `COc1ccc(C(=O)NS(=O)(=O)c2c(Cl)cccc2Cl)nc1`
2 (30% or more-50% inhibition)

`COC(=O)c1ccccc1S(=O)(=O)NC(=O)c1cc(Cl)cc(OC)n1` , same question.
3 (50% or more-70% inhibition)

Also `COc1cc(Cl)nc(C(=O)NS(=O)(=O)c2c(Cl)cccc2Cl)c1` ?
4 (70% or more-90% inhibition)
